These entries and their values trace back to patent US20160264649A1.

target: HIV-1 Env of isolate MGRM-F1-008 (subtype F) (HIV-1); experiment: cell-based or functional assay
endpoint.label: IC50 (neutralization)

Consider the reported IC50 (neutralization) for these binders:
GET /values?readout=IC50 (neutralization)&item= PGT-137 (antibody, V domains shown) VH: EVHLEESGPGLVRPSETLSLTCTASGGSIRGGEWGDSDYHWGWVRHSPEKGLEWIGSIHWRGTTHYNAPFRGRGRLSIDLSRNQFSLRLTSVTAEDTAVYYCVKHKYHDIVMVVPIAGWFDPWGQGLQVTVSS VL: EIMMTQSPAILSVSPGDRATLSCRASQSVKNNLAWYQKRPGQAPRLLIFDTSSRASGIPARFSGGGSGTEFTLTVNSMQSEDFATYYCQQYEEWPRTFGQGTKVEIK
> 50 µg/mL

// query: PGT-136 (antibody, V domains shown) VH: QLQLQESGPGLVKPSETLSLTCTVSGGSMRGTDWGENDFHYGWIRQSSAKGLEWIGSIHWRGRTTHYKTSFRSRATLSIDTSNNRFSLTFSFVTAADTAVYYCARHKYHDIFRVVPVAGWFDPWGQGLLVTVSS VL: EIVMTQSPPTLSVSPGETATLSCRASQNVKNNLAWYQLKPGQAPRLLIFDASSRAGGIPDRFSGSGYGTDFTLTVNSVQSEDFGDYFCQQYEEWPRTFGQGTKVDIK
> 50 µg/mL

Same question, PGT-130 (antibody, V domains shown) VH: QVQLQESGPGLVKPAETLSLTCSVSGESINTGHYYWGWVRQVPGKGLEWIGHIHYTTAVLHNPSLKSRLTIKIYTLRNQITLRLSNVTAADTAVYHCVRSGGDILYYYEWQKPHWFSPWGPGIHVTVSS VL: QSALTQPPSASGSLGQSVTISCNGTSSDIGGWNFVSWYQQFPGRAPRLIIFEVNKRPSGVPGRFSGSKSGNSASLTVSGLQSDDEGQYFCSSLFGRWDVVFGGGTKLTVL this time
0.065 µg/mL

Then what about the binder PGT-131 (antibody, V domains shown) VH: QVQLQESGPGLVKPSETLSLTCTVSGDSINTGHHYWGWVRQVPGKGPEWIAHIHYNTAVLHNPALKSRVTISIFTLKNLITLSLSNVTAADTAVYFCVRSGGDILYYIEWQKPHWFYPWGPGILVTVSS VL: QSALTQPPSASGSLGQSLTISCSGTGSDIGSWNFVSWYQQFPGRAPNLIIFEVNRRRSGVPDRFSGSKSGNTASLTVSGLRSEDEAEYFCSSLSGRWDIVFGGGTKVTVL ?
2.74 µg/mL

Then this binder:
IC50 (neutralization) lookup needed for PGT-128 (antibody, V domains shown) VH: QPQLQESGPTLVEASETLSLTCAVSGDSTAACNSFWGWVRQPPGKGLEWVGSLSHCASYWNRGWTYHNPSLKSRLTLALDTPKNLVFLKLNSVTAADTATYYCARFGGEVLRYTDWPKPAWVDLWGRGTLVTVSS VL: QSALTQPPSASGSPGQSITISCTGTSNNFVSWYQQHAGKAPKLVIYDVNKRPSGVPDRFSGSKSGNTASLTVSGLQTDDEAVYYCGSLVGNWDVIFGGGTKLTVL , thanks.
> 50 µg/mL
